Biological target: T1, human CCR8 (human, UniProt P51685 1-355)
T1 construct: Native CCR8 on human PBMC (CCR8+ CD3+ or CCR8+ CD4+ lymphocytes); also called chemokine (C-C motif) receptor 8
T1 sequence (P51685 whole entry): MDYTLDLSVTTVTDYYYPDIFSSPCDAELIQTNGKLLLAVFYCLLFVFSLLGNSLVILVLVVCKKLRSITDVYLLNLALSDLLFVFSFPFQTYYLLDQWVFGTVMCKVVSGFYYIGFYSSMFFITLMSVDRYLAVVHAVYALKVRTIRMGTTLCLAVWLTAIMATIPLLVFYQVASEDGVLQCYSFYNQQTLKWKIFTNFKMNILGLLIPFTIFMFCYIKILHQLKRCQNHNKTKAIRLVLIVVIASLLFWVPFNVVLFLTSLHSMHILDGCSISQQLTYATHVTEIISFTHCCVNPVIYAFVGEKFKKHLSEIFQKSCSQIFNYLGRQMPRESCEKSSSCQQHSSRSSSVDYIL
Experiment: flow blocking, PBMC CCR8+CD4+; competitor PE-AB3
RESULT TYPE: % Blocking (%)
Give bare numbers, in %.

Form: binder = AB5 (antibody, V domains shown, Hybridoma monoclonal; Same VH/VL entries as AB6; also called antibody 5; clone 5) VH: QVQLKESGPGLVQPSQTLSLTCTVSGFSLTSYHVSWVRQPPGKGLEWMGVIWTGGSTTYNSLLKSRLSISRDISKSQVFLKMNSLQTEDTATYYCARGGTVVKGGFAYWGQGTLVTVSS VL: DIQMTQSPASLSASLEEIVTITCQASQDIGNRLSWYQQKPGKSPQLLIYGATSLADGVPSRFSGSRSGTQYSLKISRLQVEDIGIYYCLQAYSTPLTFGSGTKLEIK ; % Blocking = 95.9
